src = patent US20110257210A1

molecular target: benzodiazepine binding site on GABAA receptors (rat cerebral cortex membranes); assay: In vitro inhibition of 3H-flunitrazepam (3H-FNM) binding; conditions: inhibition of specific binding of 3H-FNM (1 nM), cerebral cortex membranes from male Wistar rats, 40 min at 2° C.
Metric: IC50 (nM)

Sample records with IC50:
[[record]]
query_smiles = "CC(C)(O)c1ccc2c(c1)ncn2-c1ccc(F)c(-c2cccnc2F)c1"
metric = "IC50"
quantitative_readout = 1.6

[[record]]
query_smiles = "CC(C)(O)c1ccc2c(c1)ncn2-c1ccc(F)c(-c2ccncc2Cl)c1"
metric = "IC50"
quantitative_readout = 0.64

[[record]]
query_smiles = "CC(C)(O)c1ccc2c(c1)ncn2-c1ccc(F)c(-c2ccncc2C#N)c1"
metric = "IC50"
quantitative_readout = 1.1

[[record]]
query_smiles = "COc1ncc(-c2cc(-n3cnc4cc(C(C)(C)O)ccc43)ccc2F)c(OC)n1"
metric = "IC50"
quantitative_readout = 0.77

[[record]]
query_smiles = "CC(C)(O)c1ccc2c(c1)ncn2-c1ccc(F)c(-c2ccncc2F)c1"
metric = "IC50"
quantitative_readout = 1.1


(I) CC(C)(O)c1ccc2c(c1)ncn2-c1ccc(F)c(-c2cncc(C#N)c2)c1
(II) CC(C)(O)c1ccc2c(c1)ncn2-c1ccc(F)c(-c2cccnc2Cl)c1
Pick one: I or II . Which has the bigger IC50 number? Kindly state the label of the option you pick. I

(I) CC(C)(O)c1ccc2c(c1)ncn2-c1ccc(F)c(-c2ccnc(Cl)c2F)c1
(II) COc1ncccc1-c1cc(-n2cnc3cc(C(C)(C)O)ccc32)ccc1F
Parameter check: reported IC50 is higher for which label, I or II ? // respond with label for picked entry I
(I: 2.5 nM, II: 0.29 nM)
